Tested on: Coxsackievirus B5
ASSAY_NOTES: Antiviral activity against human CVB5 infected in african green monkey Vero76 cells assessed as inhibition of virus-induced cytopathogenicity after 3 days by plaque reduction assay
Format: functional, organism-based
CONDITION: Enterovirus B, Vero 76, 72 h
pEC50: −log10 of the molar value.
MEASURED_QUANTITY: pEC50

>>> result("CN1CCN(CCn2nnc3ccccc32)CC1")
"< 4.00"
>>> result("Clc1ccc(Cn2nc3cc(Cl)c(Cl)cc3n2)cc1")
"< 4.00"

Please look up its pEC50: Oc1ccc(-n2nc3ccccc3n2)cc1
< 4.00

###

ASSAY_NOTES: Cytotoxicity against human MT4 cells assessed as cell viability after 96 hrs by MTT assay
Assay type: cell-based
MEASURED_QUANTITY: CC50 at 96 h

Look over these answered cases.
>>> result("C[C@@]1(O)[C@H](O)[C@@H](CO)O[C@H]1n1cnc2c(=O)[nH]c(N)nc21")
"> 100 µM"
>>> result("O=C(O)COc1ccc(-n2nc3ccccc3[n+]2[O-])cc1")
"> 100 µM"
>>> result("CC(C)(Oc1ccc(-n2nc3ccccc3n2)cc1)C(=O)O")
"> 100 µM"
>>> result("CC(C)(CCCOc1ccc(-n2nc3ccccc3n2)cc1)C(=O)O")
"47 µM"
>>> result("COc1ccccc1N1CCN(CCCOc2ccc(-n3nc4ccc(C(F)(F)F)cc4n3)cc2)CC1")
"100 µM"

Let us move to another entry and its CC50 at 96 h.
Please look up its CC50 at 96 h: Cc1ccc2nn(-c3ccc(OC(C)(C)C(=O)O)cc3)nc2c1
> 100 µM

###

Tested on: Coxsackievirus B5
ASSAY_NOTES: Antiviral activity against human CVB5 infected in african green monkey Vero76 cells assessed as inhibition of virus-induced cytopathogenicity after 3 days by plaque reduction assay
Format: functional, organism-based
CONDITION: Enterovirus B, Vero 76, 72 h
MEASURED_QUANTITY: EC50

>>> result("CC(C)(COc1ccc(-n2nc3ccc(Cl)cc3n2)cc1)C(=O)O")
"1.7 µM"
>>> result("COc1cc(/C=C/C(=O)OCCn2nc3ccccc3n2)cc(OC)c1OC")
"> 100 µM"
>>> result("CC(CC(=O)O)n1nc2ccc3ccccc3c2n1 (configuration not stated)")
"> 100 µM"
>>> result("[O-][n+]1c2ccccc2nn1-c1ccc(O)cc1")
"> 100 µM"
>>> result("NC(=O)c1ncn([C@@H]2O[C@H](CO)[C@@H](O)[C@H]2O)n1")
"> 100 µM"

API: value(readout= EC50, system= Coxsackievirus B5, query= COc1cc(C(=O)OCCCn2nnc3ccccc32)cc(OC)c1OC )
> 100 µM

API: value(readout= EC50, system= Coxsackievirus B5, query= CC(CC(=O)O)n1nc2ccc([N+](=O)[O-])cc2n1 (configuration not stated) )
> 100 µM

API: value(readout= EC50, system= Coxsackievirus B5, query= C[C@H](Oc1ccc(-n2nc3ccccc3n2)cc1)C(=O)O )
> 100 µM

API: value(readout= EC50, system= Coxsackievirus B5, query= COc1c(C)c2c(c(O)c1C/C=C(\C)CCC(=O)O)C(=O)OC2 )
> 100 µM

API: value(readout= EC50, system= Coxsackievirus B5, query= C[C@@]1(O)[C@H](O)[C@@H](CO)O[C@H]1n1cnc2c(=O)[nH]c(N)nc21 )
20 µM

API: value(readout= EC50, system= Coxsackievirus B5, query= O=C(O)COc1ccc(-n2nc3ccccc3[n+]2[O-])cc1 )
> 100 µM

API: value(readout= EC50, system= Coxsackievirus B5, query= O=C(Cn1nnc2ccccc21)N1CCOCC1 )
> 100 µM

API: value(readout= EC50, system= Coxsackievirus B5, query= Cc1cc(CCCOc2c(C)cc(-c3noc(C(F)(F)F)n3)cc2C)on1 )
0.008 µM

API: value(readout= EC50, system= Coxsackievirus B5, query= CN(C)c1cccc(C(=O)OCCCn2nc3ccccc3n2)c1 )
73 µM

API: value(readout= EC50, system= Coxsackievirus B5, query= CN(C)C(=O)Cn1nc2ccccc2n1 )
> 100 µM

API: value(readout= EC50, system= Coxsackievirus B5, query= CC(C)(Oc1ccc(-n2nc3ccccc3n2)cc1)C(=O)O )
> 100 µM

API: value(readout= EC50, system= Coxsackievirus B5, query= COc1ccc(Cn2nc3ccc(C(F)(F)F)cc3n2)cc1 )
> 100 µM

###

Tested on: Bovine viral diarrhea virus 1
ASSAY_NOTES: Antiviral activity against BVDV infected in MDBK cells assessed as inhibition of virus-induced cytopathogenicity after 3 to 4 days by MTT assay
Format: functional, organism-based
CONDITION: Bovine viral diarrhea virus isolates and strains
MEASURED_QUANTITY: EC50

Look over these answered cases.
>>> result("Nc1nc2c(ncn2COCCO)c(=O)[nH]1")
"> 100 µM"
>>> result("COc1ccc2nn(-c3ccc(OCC(C)(C)C(=O)O)cc3)nc2c1")
"66 µM"
>>> result("CC(CC(=O)O)n1nc2ccc([N+](=O)[O-])cc2n1 (stereo unspecified)")
"> 100 µM"

Please look up its EC50: CN(C)C(=O)Cn1nc2ccccc2n1
> 100 µM

Please look up its EC50: Clc1cc2nn(C3CCCCO3)nc2cc1Cl (stereo unspecified)
> 100 µM

Please look up its EC50: CC(C)(COc1ccc(-n2nc3ccc(Cl)cc3n2)cc1)C(=O)O
21 µM

###

System: Bovine viral diarrhea virus 1
ASSAY_NOTES: Antiviral activity against BVDV infected in MDBK cells assessed as inhibition of virus-induced cytopathogenicity after 3 to 4 days by MTT assay
Type: functional, organism-based
CONDITION: Bovine viral diarrhea virus isolates and strains
MEASURED_QUANTITY: EC50

Look over these answered cases.
>>> result("CC(C)(COc1ccc(-n2nc3ccccc3n2)cc1)C(=O)O")
"44 µM"
>>> result("C[C@H](Oc1ccc(-n2nc3ccccc3n2)cc1)C(=O)O")
"> 100 µM"
>>> result("COc1cc(C(=O)OCCCn2nnc3ccccc32)cc(OC)c1OC")
"> 100 µM"

API: value(readout= EC50, system= Bovine viral diarrhea virus 1, query= Cc1ccc2nn(-c3ccc(OCC(C)(C)C(=O)O)cc3)nc2c1 )
> 100 µM

API: value(readout= EC50, system= Bovine viral diarrhea virus 1, query= NNC(=O)Cn1nnc2ccccc21 )
> 100 µM

API: value(readout= EC50, system= Bovine viral diarrhea virus 1, query= [O-][n+]1c2cc(C(F)(F)F)ccc2nn1-c1ccc(O)cc1 )
> 100 µM

API: value(readout= EC50, system= Bovine viral diarrhea virus 1, query= [O-][n+]1c2ccccc2nn1-c1ccc(O)cc1 )
> 100 µM

API: value(readout= EC50, system= Bovine viral diarrhea virus 1, query= CC(=O)Nc1ccc(-n2nc3ccccc3n2)cc1 )
70 µM

API: value(readout= EC50, system= Bovine viral diarrhea virus 1, query= O=C(Cn1nnc2ccccc21)N1CCOCC1 )
> 100 µM

###

ASSAY_NOTES: Cytotoxicity against human MT4 cells assessed as cell viability after 96 hrs by MTT assay
Format: cell-based
Form field: CC50 at 96 h (one value per entry).
Value expressed in µM; do not type the unit.

>>> readout_number("CC(C)(COc1ccc(-n2nc3ccc(Cl)cc3n2)cc1)C(=O)O")
94

Let us move to another entry and its CC50 at 96 h.
Please look up its CC50 at 96 h: CN(C)c1cccc(C(=O)OCCn2nnc3ccccc32)c1
65

###

ASSAY_NOTES: Cytotoxicity against human MT4 cells assessed as cell viability after 96 hrs by MTT assay
Type: cell-based
MEASURED_QUANTITY: CC50 at 96 h

Look over these answered cases.
>>> result("COc1ccc(Cn2nc3ccc(C(F)(F)F)cc3n2)cc1")
"> 100 µM"
>>> result("Clc1cc2nn(Cc3ccccc3)nc2cc1Cl")
"> 100 µM"

Let us move to another entry and its CC50 at 96 h.
Please look up its CC50 at 96 h: CN(C)C(=O)Cn1nnc2ccccc21
> 100 µM
